B1: NET1 (parent)
chain: IKRTIRVLDVNNQSFREQEEPSNK

# Variants of: B1
# Assay: protein stability index of a GFP-peptide fusion (GPS, HEK-293T) (PSI 1-6); higher = more stable;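 also: lentivirally expressed fusions sorted by FACS into six bins by GFP to DsRed ratio, PSI derived from sequencing read proportions per bin multiplied by bin number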
# Particulars: c terminus: a fixed tail appended
For each record, write down the corresponding protein stability index.
Answer field: number only, no words.

IN: Kindly indicate its recorded protein stability index. Item: K2H
OUT: 4.01

IN: Kindly indicate its recorded protein stability index. Item: S22D
OUT: 3.99

IN: Kindly indicate its recorded protein stability index. Item: D9N
OUT: 4.11

IN: Kindly indicate its recorded protein stability index. Item: N12W
OUT: 2.63

IN: Kindly indicate its recorded protein stability index. Item: F15P
OUT: 4.67

IN: Kindly indicate its recorded protein stability index. Item: P21Q
OUT: 3.34

IN: Kindly indicate its recorded protein stability index. Item: E20Q
OUT: 2.8

IN: Kindly indicate its recorded protein stability index. Item: Q18F
OUT: 2.52

IN: Kindly indicate its recorded protein stability index. Item: S14A
OUT: 3.02

IN: Kindly indicate its recorded protein stability index. Item: P21E
OUT: 3.36

IN: Kindly indicate its recorded protein stability index. Item: R6N
OUT: 3.62

IN: Kindly indicate its recorded protein stability index. Item: K2V
OUT: 3.33

IN: Kindly indicate its recorded protein stability index. Item: R3F
OUT: 1.75

IN: Kindly indicate its recorded protein stability index. Item: K24V
OUT: 3.73

IN: Kindly indicate its recorded protein stability index. Item: Q18A
OUT: 2.27

IN: Kindly indicate its recorded protein stability index. Item: E20V
OUT: 3.04

IN: Kindly indicate its recorded protein stability index. Item: K24L
OUT: 4.23

IN: Kindly indicate its recorded protein stability index. Item: P21F
OUT: 2.35

IN: Kindly indicate its recorded protein stability index. Item: R16H
OUT: 3.69

IN: Kindly indicate its recorded protein stability index. Item: K24R
OUT: 3.52

IN: Kindly indicate its recorded protein stability index. Item: V10F
OUT: 3.19

IN: Kindly indicate its recorded protein stability index. Item: N11W
OUT: 2.65

IN: Kindly indicate its recorded protein stability index. Item: K2I
OUT: 3.05

IN: Kindly indicate its recorded protein stability index. Item: R6C
OUT: 3.35

IN: Kindly indicate its recorded protein stability index. Item: P21V
OUT: 3.22

IN: Kindly indicate its recorded protein stability index. Item: V10Y
OUT: 4.06

IN: Kindly indicate its recorded protein stability index. Item: N12V
OUT: 2.97

IN: Kindly indicate its recorded protein stability index. Item: I1M
OUT: 3.63

IN: Kindly indicate its recorded protein stability index. Item: N12K
OUT: 2.72

IN: Kindly indicate its recorded protein stability index. Item: V7R
OUT: 3.71

IN: Kindly indicate its recorded protein stability index. Item: L8I
OUT: 2.96

IN: Kindly indicate its recorded protein stability index. Item: T4C
OUT: 3.51

IN: Kindly indicate its recorded protein stability index. Item: R3N
OUT: 4.86

IN: Kindly indicate its recorded protein stability index. Item: K24N
OUT: 3.99

IN: Kindly indicate its recorded protein stability index. Item: N11S
OUT: 4.22

IN: Kindly indicate its recorded protein stability index. Item: V7A
OUT: 3.3

IN: Kindly indicate its recorded protein stability index. Item: N12E
OUT: 3.98

IN: Kindly indicate its recorded protein stability index. Item: V10M
OUT: 4

IN: Kindly indicate its recorded protein stability index. Item: E20I
OUT: 3.37

IN: Kindly indicate its recorded protein stability index. Item: D9P
OUT: 4.36

IN: Kindly indicate its recorded protein stability index. Item: E17C
OUT: 3.27

IN: Kindly indicate its recorded protein stability index. Item: N11A
OUT: 4.48

IN: Kindly indicate its recorded protein stability index. Item: Q18H
OUT: 3.7

IN: Kindly indicate its recorded protein stability index. Item: S22P
OUT: 3.64

IN: Kindly indicate its recorded protein stability index. Item: E17N
OUT: 3.16

IN: Kindly indicate its recorded protein stability index. Item: V7C
OUT: 3.62

IN: Kindly indicate its recorded protein stability index. Item: E19K
OUT: 3.88

IN: Kindly indicate its recorded protein stability index. Item: R6M
OUT: 3.32

IN: Kindly indicate its recorded protein stability index. Item: V7D
OUT: 4.53

IN: Kindly indicate its recorded protein stability index. Item: Q18E
OUT: 3.76

IN: Kindly indicate its recorded protein stability index. Item: V10D
OUT: 4.83

IN: Kindly indicate its recorded protein stability index. Item: K2E
OUT: 4.01

IN: Kindly indicate its recorded protein stability index. Item: I1E
OUT: 4.07

IN: Kindly indicate its recorded protein stability index. Item: R16Y
OUT: 3.4

IN: Kindly indicate its recorded protein stability index. Item: V7L
OUT: 3.46

IN: Kindly indicate its recorded protein stability index. Item: N11M
OUT: 2.83

IN: Kindly indicate its recorded protein stability index. Item: T4D
OUT: 4.51

IN: Kindly indicate its recorded protein stability index. Item: N23F
OUT: 2.96

IN: Kindly indicate its recorded protein stability index. Item: N12F
OUT: 2.7

IN: Kindly indicate its recorded protein stability index. Item: T4E
OUT: 4.96

IN: Kindly indicate its recorded protein stability index. Item: P21H
OUT: 3.75

IN: Kindly indicate its recorded protein stability index. Item: E19V
OUT: 2.68

IN: Kindly indicate its recorded protein stability index. Item: R3E
OUT: 4.92

IN: Kindly indicate its recorded protein stability index. Item: T4Q
OUT: 3.86

IN: Kindly indicate its recorded protein stability index. Item: P21D
OUT: 3.97

IN: Kindly indicate its recorded protein stability index. Item: I1N
OUT: 3.61

IN: Kindly indicate its recorded protein stability index. Item: P21L
OUT: 3.93

IN: Kindly indicate its recorded protein stability index. Item: N11F
OUT: 2.61

IN: Kindly indicate its recorded protein stability index. Item: P21Y
OUT: 3.78

IN: Kindly indicate its recorded protein stability index. Item: E20M
OUT: 3.16

IN: Kindly indicate its recorded protein stability index. Item: E17H
OUT: 3.59

IN: Kindly indicate its recorded protein stability index. Item: Q18R
OUT: 3.1

IN: Kindly indicate its recorded protein stability index. Item: Q18I
OUT: 3.1

IN: Kindly indicate its recorded protein stability index. Item: D9I
OUT: 1.58

IN: Kindly indicate its recorded protein stability index. Item: E19L
OUT: 2.27

IN: Kindly indicate its recorded protein stability index. Item: E20D
OUT: 3.23

IN: Kindly indicate its recorded protein stability index. Item: I5S
OUT: 4.56

IN: Kindly indicate its recorded protein stability index. Item: T4N
OUT: 4.13

IN: Kindly indicate its recorded protein stability index. Item: S22M
OUT: 4.02

IN: Kindly indicate its recorded protein stability index. Item: R3K
OUT: 3.93

Measured values drawn from the supplement of paper PMC10567573 for this set.
